system: HCT-116 colon; experiment: NCI tumour cell line growth inhibition, 48 h
testReadout: log10 of TGI (log10 of the value in µM)
# log10 transformed; quantity=TGI; unit=µM

Example entries begin here.
INSERT INTO measurements (querysmiles, studytarget, measuredvalue) VALUES
  ('CCOC(=O)c1c(C)n(Cc2ccccc2)c2c1cc(O)c1[nH]c3c(c12)CCCC3', 'HCT-116 colon', 1.44),
  ('COc1cccc(/C=C/C(=O)c2ccc(Cl)cc2Cl)c1OC', 'HCT-116 colon', 0.77),
  ('CN(C)CCNC(=O)c1cccc2cc3ccccc3nc12', 'HCT-116 colon', 0.68),
  ('C[C@@]12CC[C@H]3[C@@H]4CCC(=O)N[C@@]4(C)CC[C@@H]3[C@@]1(C)CC[C@H](OC(=O)Cc1ccc(N(CCCl)CCCl)cc1)C2', 'HCT-116 colon', 1.48),
  ('O=C([O-])c1ccc2c(c1)-c1nc-2nc2[n-]c(nc3nc(nc4[n-]c(n1)c1ccc(C(=O)[O-])cc41)-c1cc(C(=O)[O-])ccc1-3)c1ccc(C(=O)[O-])cc21.[Fe+2]', 'HCT-116 colon', 1.54),
  ('COc1ccc(/C(Cl)=C(\C=O)c2ccc(F)cc2)cc1', 'HCT-116 colon', 1.30);

Lab note: next molecule to report on.
So what log10 of TGI did COc1cc2c3c(n(CCCN)c(=O)c2cc1OC)-c1ccc(F)cc1C3=O get with HCT-116 colon?
0.39
